# System: mu opiate receptor (MOR)
# assay-name: MOR agonist activity using [35S]GTPγS binding assay in striatal membranes
# Format: biochemical
# condition-summary: 1 μM compound + 1 μM β-funaltrexamine
recorded-endpoint: MOR agonist activity ([35S]GTPγS binding), FLNA-Binding Compound as Agonist 1 μM + BFNA

Recorded results for 3 compounds are shown here.
compound	recorded-result
COc1ccc(OCC(O)CN2CC(C)OC(C)C2)cc1 (stereo not shown) [Compound A0048]	167.2%
CC1CCC(C(C)C)C(OCC(O)CN2CCSC2)C1 (stereo not shown) [Compound A0002]	6.5%
CC1CCC(C(C)C)C(OCC(O)CN2CCCCC2=O)C1 (stereo not shown) [Compound A0036]	63.2%

## Task Quick check: MOR agonist activity ([35S]GTPγS binding), FLNA-Binding Compound as Agonist 1 μM + BFNA of OC(COc1ccc(Br)c(F)c1)CN1CCc2ccccc2C1 (stereo not shown) [Compound A0057] ?
## Result 44.8%

## Task Quick check: MOR agonist activity ([35S]GTPγS binding), FLNA-Binding Compound as Agonist 1 μM + BFNA of OC(COc1cccc(C(F)(F)F)c1)CN1CCc2ccccc2C1 (stereo not shown) [Compound A0054] ?
## Result 114.1%

## Task Quick check: MOR agonist activity ([35S]GTPγS binding), FLNA-Binding Compound as Agonist 1 μM + BFNA of Cc1ccc(C(C)C)c(OCC(O)CN2CC(C)OC(C)C2)c1 (stereo not shown) [Compound A0028] ?
## Result 116.7%

## Task Quick check: MOR agonist activity ([35S]GTPγS binding), FLNA-Binding Compound as Agonist 1 μM + BFNA of CC(=O)c1ccc(OCC(O)CN2CC(C)OC(C)C2)cc1 (stereo not shown) [Compound A0044] ?
## Result 134.7%

## Task Quick check: MOR agonist activity ([35S]GTPγS binding), FLNA-Binding Compound as Agonist 1 μM + BFNA of COc1ccc(N2CCN(CC(O)COC3CC(C)CCC3C(C)C)CC2)c(OC)c1 (stereo not shown) [Compound A0012] ?
## Result 122.4%

## Task Quick check: MOR agonist activity ([35S]GTPγS binding), FLNA-Binding Compound as Agonist 1 μM + BFNA of CC1CCC(C)C(OCC(O)CN2CC(C)OC(C)C2)C1 (stereo not shown) [Compound A0022] ?
## Result 28.0%

## Task Quick check: MOR agonist activity ([35S]GTPγS binding), FLNA-Binding Compound as Agonist 1 μM + BFNA of CC1CCC(C(C)C)C(OCC(O)CN2CCN(CCN3CCOCC3)CC2)C1 (stereo not shown) [Compound A0011] ?
## Result 47.0%

## Task Quick check: MOR agonist activity ([35S]GTPγS binding), FLNA-Binding Compound as Agonist 1 μM + BFNA of CC1CN(CC(O)COc2ccc(Br)c(Cl)c2)CC(C)O1 (stereo not shown) [Compound A0045] ?
## Result 99.2%

## Task Quick check: MOR agonist activity ([35S]GTPγS binding), FLNA-Binding Compound as Agonist 1 μM + BFNA of Cc1cccc(OCC(O)CN2CC(C)OC(C)C2)c1 (stereo not shown) [Compound A0030] ?
## Result 165.2%

## Task Quick check: MOR agonist activity ([35S]GTPγS binding), FLNA-Binding Compound as Agonist 1 μM + BFNA of CC1CCC(C(C)C)C(OCC(O)CN2CCC(=O)CC2)C1 (stereo not shown) [Compound A0060] ?
## Result 14.3%

## Task Quick check: MOR agonist activity ([35S]GTPγS binding), FLNA-Binding Compound as Agonist 1 μM + BFNA of CC1CCC(C(C)C)C(OCC(O)CN2CCCC2=O)C1 (stereo not shown) [Compound A0035] ?
## Result 88.6%
